Data provenance is patent US20110275559A1.

# Y4 cAMP EC50 listing for each entry below
Experimental System: Y4 receptor (UniProt P50391 1-375, limits assumed)
Sequence (P50391 whole entry): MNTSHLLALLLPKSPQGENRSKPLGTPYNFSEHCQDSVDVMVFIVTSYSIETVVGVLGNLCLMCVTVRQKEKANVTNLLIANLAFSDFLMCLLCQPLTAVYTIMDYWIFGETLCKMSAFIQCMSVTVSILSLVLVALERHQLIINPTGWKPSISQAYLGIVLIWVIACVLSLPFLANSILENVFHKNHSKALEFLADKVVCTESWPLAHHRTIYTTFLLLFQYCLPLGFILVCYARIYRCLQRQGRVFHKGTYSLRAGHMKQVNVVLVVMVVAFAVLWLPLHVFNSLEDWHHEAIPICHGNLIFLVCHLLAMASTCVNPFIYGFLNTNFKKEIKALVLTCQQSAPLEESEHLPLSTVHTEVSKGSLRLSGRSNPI
Test Details: cell-based or functional assay
*1 amine or outer side, *2 acyl side, *3 side chain or, on linkers, in order; H or OH if unused. Where no end group is shown, it is not given here. Side-chain parts run from the residue outwards. The star is where a group is joined. C20 diacid = O=C(O)CCCCCCCCCCCCCCCCCCC(=O)*; C18 diacid = O=C(O)CCCCCCCCCCCCCCCCC(=O)*; γGlu = O=C(O)[C@H](CCC(=O)[*:2])N[*:1]; Trx = NC[C@H]1CC[C@H](C(=O)O)CC1; AEEA = NCCOCCOCC(=O)O
Provide only the numeric value, understood in nM.

Worked cases, answers included:
{"Binder": "APLEPVYPGDNAK([AEEA-AEEA-γGlu-C18 diacid])PEQMAQYAADLRRYINMLTRPRY (ends and bridges not checked)", "Y4 cAMP EC50 / nM": 2}
{"Binder": "APLEPVYPGDNAK([AEEA-AEEA-γGlu-Trx-C20 diacid])PEQLAQYAADLRRYINVLTRQRY (ends and bridges not checked)", "Y4 cAMP EC50 / nM": 7}
{"Binder": "APLEPVYPGDNAK([AEEA-AEEA-γGlu-Trx-C20 diacid])PEQLAQYAADLRRYLNVLTRQRY (ends and bridges not checked)", "Y4 cAMP EC50 / nM": 7}

Quick one: Y4 cAMP EC50 of APLEPVYPGDNAK([AEEA-AEEA-γGlu-Trx-C20 diacid])PEQLAQYAADLRRYVNLLTRQRY (ends and bridges not checked) ?
65
